SUBJECT OF TEST: Chromatin-MDM2 (Homo sapiens, UniProt Q00987)
Construct: endogenous in cells; host or cells: IB111
Sequence (Q00987 whole entry): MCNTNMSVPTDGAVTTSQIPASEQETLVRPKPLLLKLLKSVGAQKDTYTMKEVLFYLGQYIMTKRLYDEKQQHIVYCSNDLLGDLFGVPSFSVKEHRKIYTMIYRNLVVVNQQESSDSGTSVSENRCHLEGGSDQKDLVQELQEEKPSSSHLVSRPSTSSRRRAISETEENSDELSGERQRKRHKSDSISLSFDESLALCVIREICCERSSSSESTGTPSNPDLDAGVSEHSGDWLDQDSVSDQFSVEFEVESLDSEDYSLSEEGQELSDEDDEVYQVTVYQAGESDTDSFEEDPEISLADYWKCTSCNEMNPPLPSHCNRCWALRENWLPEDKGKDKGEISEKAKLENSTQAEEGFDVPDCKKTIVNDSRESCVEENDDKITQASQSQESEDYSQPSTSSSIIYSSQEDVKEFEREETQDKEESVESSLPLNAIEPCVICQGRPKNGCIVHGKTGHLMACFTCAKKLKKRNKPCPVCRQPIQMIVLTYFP
MEASUREMENT PROTOCOL: MDM2 degradation by western blot and immunofluorescence, chromatin-bound MDM2 (IB111 cells dependent on C-MDM2)
Format: cell-based
PROTOCOL CONDITIONS: human, IB111 (presence of C-MDM2), degradation efficacy
Property: Dmax; scope: individual compounds

Take a look at these entries with their results.
Exercise: Fill in Dmax for `COc1ccc2[nH]c3c(-c4cccc5c4CCCC5)nccc3c2n1` tested with Chromatin-MDM2 (Homo sapiens, UniProt Q00987).
Key: ≥ 80%

Exercise: Fill in Dmax for `COc1ccc2[nH]c3c(-c4cccc5c(F)cccc45)nccc3c2n1` tested with Chromatin-MDM2 (Homo sapiens, UniProt Q00987).
Key: 25 to 40%

Exercise: Fill in Dmax for `COc1ccc2[nH]c3c(-c4ccc(F)c5ccccc45)nccc3c2n1` tested with Chromatin-MDM2 (Homo sapiens, UniProt Q00987).
Key: 40 to 80%

More entries:
Exercise: Fill in Dmax for `COc1ccc2[nH]c3c(-c4ccnc5ccccc45)nccc3c2n1` tested with Chromatin-MDM2 (Homo sapiens, UniProt Q00987).
Key: 25 to 40%

Exercise: Fill in Dmax for `COc1ccc2[nH]c3c(-c4ccnc5nccnc45)nccc3c2n1` tested with Chromatin-MDM2 (Homo sapiens, UniProt Q00987).
Key: 25 to 40%
